experimental target: GST-NbGlk1(82-244) (Nicotiana benthamiana)
Chain: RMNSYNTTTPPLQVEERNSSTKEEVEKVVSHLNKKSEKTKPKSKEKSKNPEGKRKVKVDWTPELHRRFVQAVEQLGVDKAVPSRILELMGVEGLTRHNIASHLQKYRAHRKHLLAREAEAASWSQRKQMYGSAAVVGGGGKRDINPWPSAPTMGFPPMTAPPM
assay procedure: protein-binding microarray; high values mean tight binding
condition summary: protein: recombinant; tags: GST (pTH6838); dsDNA, one strand shown
Whole data set: some 16,000 sequences, median “e-score” near -0.044, cut for the highest 2% near 0.38. The entries come from a sample that favours the highest values as a whole.
value type: binding signal (E-score)
Return type: number; implicit unit E-score.

>  <sequence chain>
ATATTACG

>  <binding signal / E-score>
0.331

$$$$

GET /values?readout=binding signal&system=GST-NbGlk1(82-244) (Nicotiana benthamiana)&item= "AGATTTCA" 0.467

GET /values?readout=binding signal&system=GST-NbGlk1(82-244) (Nicotiana benthamiana)&item= "AGAATCAG" 0.39

GET /values?readout=binding signal&system=GST-NbGlk1(82-244) (Nicotiana benthamiana)&item= "AGAGAATC" 0.479

GET /values?readout=binding signal&system=GST-NbGlk1(82-244) (Nicotiana benthamiana)&item= "AGATTACT" 0.429

* * *

experimental target: GST-NbGlk1(82-244) (Nicotiana benthamiana)
Chain: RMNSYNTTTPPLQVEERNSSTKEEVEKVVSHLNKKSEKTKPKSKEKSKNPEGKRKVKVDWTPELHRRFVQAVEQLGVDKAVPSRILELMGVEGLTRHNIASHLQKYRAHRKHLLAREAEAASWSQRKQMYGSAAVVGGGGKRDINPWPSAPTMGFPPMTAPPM
assay procedure: protein-binding microarray; NbGlk1 is a Golden2-like transcription factor of Nicotiana benthamiana; high values mean tight binding
condition summary: protein: recombinant; tags: GST (pTH6838); dsDNA, one strand shown
Over roughly 16,000 sequences, “e-score” has its median near -0.044; the highest 2% begin near 0.38. This excerpt belongs to a sample that is enriched for the highest values.
Quick reference: binding signal of the listed items.
Include the unit right after the number.

Solved cases (4 shown):
>  <sequence chain>
AATCAAAG

>  <experimental target>
GST-NbGlk1(82-244) (Nicotiana benthamiana)

>  <binding signal>
0.221 E-score

$$$$
>  <sequence chain>
AATCGAAG

>  <experimental target>
GST-NbGlk1(82-244) (Nicotiana benthamiana)

>  <binding signal>
0.285 E-score

$$$$
>  <sequence chain>
AATCAAAC

>  <experimental target>
GST-NbGlk1(82-244) (Nicotiana benthamiana)

>  <binding signal>
0.25 E-score

$$$$
>  <sequence chain>
ATTCTAAA

>  <experimental target>
GST-NbGlk1(82-244) (Nicotiana benthamiana)

>  <binding signal>
0.221 E-score

$$$$

# input sequence: "ATCCTAAT" ; wanted: its binding signal 0.248 E-score

# input sequence: "AATCTAAG" ; wanted: its binding signal 0.402 E-score

# input sequence: "ACCGAATC" ; wanted: its binding signal 0.363 E-score

# input sequence: "AATCTAAC" ; wanted: its binding signal 0.413 E-score

# input sequence: "ATAGAATC" ; wanted: its binding signal 0.397 E-score

# input sequence: "AATCGAAC" ; wanted: its binding signal 0.213 E-score

# input sequence: "AATCTAAT" ; wanted: its binding signal 0.412 E-score
